Test system: HL-60(TB) leukemia
Test: NCI-60 one-dose screen, 48 h
Conditions: 10 µM unless noted
About 83,000 compounds went through this panel and 20% of them were active in at least one assay; those are over-represented in the sample as a whole. Calls of active or inactive are those of the source. How the source made its calls: active means growth percent below 10; inactive means the rest.
Write down one outcome, taken from true = active, false = inactive

Solved entries:
CCc1ccc(CNc2ccc(N3CCOCC3)c(C(=O)O)c2)cc1 : false
CC(C)C(=O)OCCOc1ccc(C(C)(C)C)cc1 : false
CC(C)c1ccc(-n2c(=S)[nH]c3sc4cc(O)ccc4c3c2=O)cc1 : false
COc1ccc([N+](=O)[O-])c(/C=C/C(=O)c2ccccn2)c1 : false
Cc1c(CC(=S)N2CCOCC2)nnn1-c1cccc(C(F)(F)F)c1 : false
COc1ccc(N2CCN(CC(=O)N3CCN(c4nnc(-c5ccccc5)c(-c5ccccc5)n4)CC3)CC2)cc1 : true

Next, consider the following molecule.
Query: Can you look up the reported call for CO[C@@H](c1ccccc1Cl)[C@H](C)OC(N)=O for me?
Response: false
